Here, molecules appear alongside pIC50 reported for Lysine-specific demethylase 5A (Homo sapiens, UniProt P29375) in the literature.
pIC50: −log10 of the molar value.

Before answering, review these 8 worked examples.
O=C(c1ccccc1)N1CCC[C@@H](n2cc(Oc3nc(O)c4ccncc4n3)cn2)C1: ≥ 7.00
N#CCC(=O)N1CC[C@H](n2cc(Oc3nc(O)c4ccncc4n3)cn2)C1: ≥ 7.00
O=C(O)c1ccncc1NCc1cccc2cc[nH]c12: ≥ 7.00
Oc1nc(Oc2ccc(F)cc2)nc2cnccc12: ≥ 7.00
O=C(O)c1ccncc1NCc1ccc(C(F)(F)F)cc1: ≥ 7.00
COC(=O)c1ccnc2cc(C3CCCC3)[nH]c12: < 5.00
Cc1ccc(-c2cc(C)nc(C3CCN(C(=O)c4cc(C(C)C)n[nH]4)C3)c2)cc1 (stereo not shown): 9.66
O=C(O)c1ccnc(-n2nccc2OCc2ccncc2)c1: > 7.00

# input molecule: O=C(O)c1ccnc2cc(C(O)C3CCOCC3)[nH]c12 (racemic) ; wanted: its pIC50
> 7.00

# input molecule: CC(C)c1cc(C(=O)N2CCC(NC(=O)c3ccccc3OCc3ccccc3)C2)[nH]n1 (stereo not shown) ; wanted: its pIC50
10.27

# input molecule: `Cc1ccc(-c2ccnn2-c2cc(C(=O)O)ccn2)cc1` ; wanted: its pIC50
6.00 to 7.00

----------
Here, molecules appear alongside IC50 reported for Lysine-specific demethylase 5A (Homo sapiens, UniProt P29375) in the literature.

# input molecule: CC(C)c1cc(C(=O)N2CCC(NC(=O)C3(C)COC3)C2)[nH]n1 (stereo not shown) ; wanted: its IC50
0.3 nM

# input molecule: CC(c1ccccc1)c1cc(C(=O)N2CCC(NC(=O)C3CC3)C2)[nH]n1 (stereo not shown) ; wanted: its IC50
0.65 nM

# input molecule: `Cc1ccc(OCc2cc3nccc(C(=O)O)c3[nH]2)cc1` ; wanted: its IC50
100 to 1000 nM

# input molecule: `CN(C)CCn1cnc(-c2cc(C(=O)O)ccn2)c1-c1ccc(Cl)c(F)c1` ; wanted: its IC50
≤ 100 nM

# input molecule: `O=C(O)c1ccnc2cc(Cc3ccc(Cl)c(F)c3)[nH]c12` ; wanted: its IC50
< 100 nM

# input molecule: `CC(C)c1cc(C(=O)N2CC[C@H](NC(=O)c3ccccc3)C2)[nH]n1` ; wanted: its IC50
0.077 nM

# input molecule: `COCCCn1cnc(-c2cc(C(=O)O)ccn2)c1-c1ccc(Cl)c(F)c1` ; wanted: its IC50
≤ 100 nM

# input molecule: `Oc1nc(OCCCC(F)(F)F)nc2cnccc12` ; wanted: its IC50
≤ 100 nM

# input molecule: CCn1ccc(C(=O)NC2CCN(C(=O)c3cc(C(C)C)n[nH]3)C2)n1 (stereo not shown) ; wanted: its IC50
0.11 nM

# input molecule: CC(O)c1cc2nccc(C(=O)O)c2[nH]1 (racemic) ; wanted: its IC50
100 to 1000 nM

----------
pIC50: −log10 of the molar value.
Here, compounds appear alongside pIC50 reported for Lysine-specific demethylase 5A (Homo sapiens, UniProt P29375) in the literature.

Before answering, review these 10 worked examples.
Cn1cnc(-c2cc(C(=O)O)ccn2)c1-c1ccc(OC(F)(F)F)cc1: 6.00 to 7.00
CC(C)c1cc(C(=O)N2CC[C@@H](n3cc4c(F)cccc4n3)C2)[nH]n1: 9.37
CC(=O)N1CCC(n2cc(Oc3nc(O)c4ccncc4n3)cn2)CC1: ≥ 7.00
Oc1nc(OCC2COc3ccccc32)nc2cnccc12 (centres unmarked): 5.00 to 6.00
O=C(O)c1ccncc1Nc1nn(CCN2CCCC2)c2ccc(Cl)cc12: > 7.00
CN(CCc1cnn(-c2cc(C(=O)O)ccn2)c1)Cc1ccc(F)cc1: > 7.00
Cn1nc(Nc2cnccc2C(=O)O)c2cc(F)ccc21: > 7.00
Cc1cc(C)n(C2CCN(C(=O)c3cc(C(C)C)n[nH]3)C2)n1 (centres unmarked): 7.92
O=C(O)c1ccnc(-n2nccc2OC2CCCc3cc(Cl)ccc32)c1 (centres unmarked): 6.00 to 7.00
Cc1ccc(C2CCN(C(=O)c3cc(C(C)C)n[nH]3)C2)nc1 (centres unmarked): 8.64

Now, please, on to the next compound.
Any idea what pIC50 came out for `CN1CCC(Cn2cnc(-c3cc(C(=O)O)ccn3)c2)CC1` on Lysine-specific demethylase 5A (Homo sapiens, UniProt P29375)?
≥ 7.00

----------
Here, compounds appear alongside IC50 reported for Lysine-specific demethylase 5A (Homo sapiens, UniProt P29375) in the literature.

O=C(O)c1ccnc(-c2cn(Cc3cccc(-c4ccccc4)c3)cn2)c1: ≤ 100 nM
COc1ccc(-c2cc(C)nc(C3CCN(C(=O)c4cc(C(C)C)n[nH]4)C3)c2)cc1 (stereo not drawn): 0.27 nM
CC(C)c1cc(C(=O)N2C[C@H](NC(=O)C3CC3)[C@@H](F)C2)[nH]n1: 0.05 nM
Cc1cccc(OCc2cc3nccc(C(=O)O)c3[nH]2)c1: < 100 nM
CCc1cc(C#N)ccc1COc1ccnn1-c1cc(C(=O)O)ccn1: < 100 nM

# input compound: `O=C(O)c1ccncc1Nc1nn(CCc2ccccc2)c2ccc(F)cc12` ; wanted: its IC50
< 100 nM

# input compound: `COCC1(c2ccc(-c3c(-c4cc(C(=O)O)ccn4)ncn3C)cc2)CC1` ; wanted: its IC50
≤ 100 nM

# input compound: Nc1cc(C(=O)N2CCC(NC(=O)C3CC3)C2)[nH]n1 (stereo not drawn) ; wanted: its IC50
17 nM

# input compound: `CN(CCc1cnn(-c2cc(C(=O)NC#N)ccn2)c1)Cc1ccc(F)cc1` ; wanted: its IC50
< 100 nM

----------
Here, compounds appear alongside IC50 reported for Lysine-specific demethylase 5A (Homo sapiens, UniProt P29375) in the literature.

Cn1cnc(-c2cc(C(=O)O)ccn2)c1-c1cccc(F)c1: ≤ 100 nM
CC(C)c1cc(C(=O)N2CCC(NC(=O)C3CCOCC3)C2)[nH]n1 (stereo not drawn): 0.4 nM

# input compound: `CC(C)c1cc(C(=O)N2CC[C@@H](NC(=O)[C@H]3C[C@@H]3F)C2)[nH]n1` ; wanted: its IC50
0.33 nM

# input compound: `Cn1cnc(-c2nccc3c(O)nc(OCc4ccc(Cl)cc4)nc23)c1` ; wanted: its IC50
100 to 1000 nM

----------
Here, compounds appear alongside IC50 reported for UniProtKB P29375 in the literature.

Before answering, review these 5 worked examples.
Cc1ccc(CNc2cnccc2C(=O)O)cc1: ≤ 100 nM
Oc1nc(OCc2c(F)cccc2F)nc2cnccc12: 1000 to 10000 nM
O=C(O)c1ccnc(-n2nccc2OCc2ccc(Cl)cc2F)c1: < 100 nM
O=C(O)c1ccnc(-c2cn(C3Cc4ccccc4C3)cn2)c1: ≤ 100 nM
CC(C)c1cc(C(=O)N2CCC(NC(=O)C3(C#N)CC3)C2)[nH]n1 (stereo not shown): 0.41 nM

# input compound: `O=C(O)c1ccnc2cc(C3(O)CCCCC3)[nH]c12` ; wanted: its IC50
100 to 1000 nM

# input compound: Cc1cc(C(=O)N2CCC(c3cc(-c4cnn(C)c4)cc(C)n3)C2)[nH]n1 (stereo not shown) ; wanted: its IC50
2.7 nM

# input compound: `Cc1ccc(-c2c(-c3cc(C(=O)O)ccn3)ncn2C)cc1O` ; wanted: its IC50
≤ 100 nM

# input compound: Cc1cn(C2CCN(C(=O)c3cc(C(C)C)[nH]n3)C2)nn1 (stereo not shown) ; wanted: its IC50
5.8 nM

# input compound: COc1ccc(C2CCN(C(=O)c3cc(C(C)C)n[nH]3)C2)nc1 (stereo not shown) ; wanted: its IC50
1.6 nM

----------
Here, compounds appear alongside IC50 reported for Lysine-specific demethylase 5A (Homo sapiens, UniProt P29375) in the literature.

Before answering, review these 5 worked examples.
N#Cc1ccc(CNc2cnccc2C(=O)O)cc1: ≤ 100 nM
O=C(O)c1ccnc(-n2nccc2-c2ccc(F)cc2F)c1: 100 to 1000 nM
O=C(O)c1ccnc(-n2nccc2OCc2ccc(C3CC3)cc2F)c1: 100 to 1000 nM
O=C(O)c1ccnc2cc(COc3cc(F)cc(F)c3)[nH]c12: < 100 nM
CC(C)c1cc(C(=O)N2CC[C@@H](NC(=O)C3(C#N)CC3)C2)[nH]n1: 0.23 nM

# input compound: `Cn1cnc(-c2nccc3c(O)nc(OCc4cccc(F)c4)nc23)c1` ; wanted: its IC50
100 to 1000 nM

# input compound: `COc1cc(-c2ccnn2-c2cc(C(=O)O)ccn2)ccc1Cl` ; wanted: its IC50
100 to 1000 nM

# input compound: `CC1(C)CCCN1C(=O)c1cc2nccc(C(=O)O)c2[nH]1` ; wanted: its IC50
100 to 1000 nM

# input compound: Cc1cc(Oc2ccccc2)cc(C2CCN(C(=O)c3cc(C(C)C)n[nH]3)C2)n1 (centres unmarked) ; wanted: its IC50
0.13 nM

# input compound: `O=C(O)c1ccncc1NCc1cc2ccccc2o1` ; wanted: its IC50
≤ 100 nM

# input compound: Cc1nn(C2CCN(C(=O)c3cc(C(C)C)n[nH]3)C2)cc1Br (centres unmarked) ; wanted: its IC50
0.36 nM
